Each recorded value in this set is attributed to paper PMC10250233.

- Tgt: CST (CTC1-STN1-TEN1) (human, UniProt Q2NKJ3;Q9H668;Q86WV5 1-1217;1-368;1-123)
- Sequence (Q2NKJ3 whole entry, chain 1 of 3): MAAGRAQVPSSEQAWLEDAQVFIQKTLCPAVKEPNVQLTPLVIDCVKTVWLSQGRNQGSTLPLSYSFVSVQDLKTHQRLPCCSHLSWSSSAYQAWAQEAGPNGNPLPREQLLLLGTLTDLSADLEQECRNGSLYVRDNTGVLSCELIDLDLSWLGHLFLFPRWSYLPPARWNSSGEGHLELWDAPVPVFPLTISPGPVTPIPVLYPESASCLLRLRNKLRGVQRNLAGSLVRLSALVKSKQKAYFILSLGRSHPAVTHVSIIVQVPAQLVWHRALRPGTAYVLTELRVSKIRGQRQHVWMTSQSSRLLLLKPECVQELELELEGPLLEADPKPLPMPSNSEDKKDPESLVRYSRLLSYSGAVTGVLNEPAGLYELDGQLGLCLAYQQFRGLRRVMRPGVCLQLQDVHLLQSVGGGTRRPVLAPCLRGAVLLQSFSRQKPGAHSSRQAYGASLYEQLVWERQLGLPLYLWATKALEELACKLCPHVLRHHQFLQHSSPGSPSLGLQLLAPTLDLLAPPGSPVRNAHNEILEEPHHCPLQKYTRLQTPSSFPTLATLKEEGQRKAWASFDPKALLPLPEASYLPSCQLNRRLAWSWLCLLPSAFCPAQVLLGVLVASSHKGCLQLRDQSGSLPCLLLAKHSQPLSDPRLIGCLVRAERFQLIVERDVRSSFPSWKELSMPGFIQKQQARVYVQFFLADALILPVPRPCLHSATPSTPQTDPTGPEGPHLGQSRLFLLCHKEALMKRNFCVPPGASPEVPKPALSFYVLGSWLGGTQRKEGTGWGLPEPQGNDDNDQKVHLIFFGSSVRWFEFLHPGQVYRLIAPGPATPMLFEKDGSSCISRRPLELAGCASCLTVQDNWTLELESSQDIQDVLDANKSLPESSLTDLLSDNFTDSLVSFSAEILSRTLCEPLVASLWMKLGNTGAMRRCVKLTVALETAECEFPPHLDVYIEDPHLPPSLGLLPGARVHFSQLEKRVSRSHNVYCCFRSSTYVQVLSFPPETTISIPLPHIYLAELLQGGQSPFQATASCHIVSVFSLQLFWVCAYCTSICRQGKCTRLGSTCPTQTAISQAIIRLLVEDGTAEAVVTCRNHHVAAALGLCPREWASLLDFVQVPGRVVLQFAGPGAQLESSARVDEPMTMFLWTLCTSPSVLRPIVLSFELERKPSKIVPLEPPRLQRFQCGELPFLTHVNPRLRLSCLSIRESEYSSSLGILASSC
- Sequence (Q9H668 whole entry, chain 2 of 3): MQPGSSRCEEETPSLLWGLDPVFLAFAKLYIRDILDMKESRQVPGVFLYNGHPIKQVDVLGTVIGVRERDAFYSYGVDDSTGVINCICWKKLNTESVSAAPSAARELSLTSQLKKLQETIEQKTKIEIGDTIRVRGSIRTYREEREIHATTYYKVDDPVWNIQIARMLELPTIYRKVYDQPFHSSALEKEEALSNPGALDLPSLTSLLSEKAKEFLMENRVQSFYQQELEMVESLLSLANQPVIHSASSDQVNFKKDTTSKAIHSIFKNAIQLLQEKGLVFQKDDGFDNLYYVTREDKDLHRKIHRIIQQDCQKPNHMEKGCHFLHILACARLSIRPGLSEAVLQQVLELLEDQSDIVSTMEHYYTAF
- Sequence (Q86WV5 whole entry, chain 3 of 3): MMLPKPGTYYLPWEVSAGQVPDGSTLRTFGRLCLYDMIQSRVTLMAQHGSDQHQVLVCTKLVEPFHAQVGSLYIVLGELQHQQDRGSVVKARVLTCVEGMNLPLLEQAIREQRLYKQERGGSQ
- Assay Text: fluorescence anisotropy; 200 mM LiCl; FA: 200 mM NaCl, KCl or LiCl, 20 mM HEPES pH 7.4, 1 mM DTT, 22-25 C, 375 or 750 pM oligo, Kd,app +/- SEM; EMSA: 20 mM HEPES pH 7.4, 200 mM KCl, 1 nM 32P oligo
- Condition Details: protein: recombinant; tags: 2xFLAG N-term on CTC1; 6xHis N-term on STN1 and TEN1; copies: 1;1;1; label: 5' fluorescein; parallel G4 in KCl; linear in LiCl
Measurement Name: Kd (nM)

- Binder: "TAGGGAGGGTAGGGAGGGT (structured_DNA) [2LBY]"
  Reported Value: 11.5
